# TESTED SYSTEM: T1, DR4G96: Human HLA-DRA1*01:02/DRB1*01:01 ECD with CLIP peptide (human)
# T1 construct: also called DRB1*01:01 CLIP
# ASSAY TEXT: MSD ECL; antigen coated; protocol of Example 3
QUANTITY: ECL signal (ECL)
The figure you give is taken to be in ECL; do not add the unit.

What value of ECL signal has been recorded for this entry: DR4B4 (antibody, V domains shown, also called Lym-1 re-engineered as IgG2sigma) VH: QVQLKESGPGLVAPSQSLSITCTISGFSLTSYGVHWVRQPPGKGLEWLVVIWSDGSTTYNSALKSRLSISKDNSKSQVFLKMNSLQTDDTAIYYCASHYGSTLAFASWGHGTLVTVSA VL: DIQMTQSPASLSASVGETVTIICRASVNIYSYLAWYQQKQGKSPQLLVYNAKILAEGVPSRFSGSGSGTQFSLKINSLQPEDFGSYYCQHHYGPFTFGSGTKLEIK
26500
